- target-of-assay: Cloned Human Dopamine D3 Receptors (Homo sapiens, UniProt P35462)
- Construct: expressed in transfected cells; membrane homogenate
- Sequence (P35462 whole entry): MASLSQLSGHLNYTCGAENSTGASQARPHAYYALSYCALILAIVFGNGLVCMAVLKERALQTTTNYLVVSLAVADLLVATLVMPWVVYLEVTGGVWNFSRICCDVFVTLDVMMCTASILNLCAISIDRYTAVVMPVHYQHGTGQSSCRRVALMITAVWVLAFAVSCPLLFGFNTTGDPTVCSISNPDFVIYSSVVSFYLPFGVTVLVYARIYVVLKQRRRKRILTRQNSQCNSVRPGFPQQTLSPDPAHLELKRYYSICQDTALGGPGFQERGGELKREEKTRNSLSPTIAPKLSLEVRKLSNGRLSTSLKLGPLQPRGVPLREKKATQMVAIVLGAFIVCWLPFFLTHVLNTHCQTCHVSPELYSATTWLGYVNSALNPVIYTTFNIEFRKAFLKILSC
- protocol: [N-Methyl-3H]Spiroperidol binding to cloned human dopamine D3 receptors
- condition-summary: Table 2 part the 10th table; read-out: d3Ki
Measured Ki by item
Lab book: enter the figure in nM, no units written.

molecule	Ki (nM)
O=C([C@@H]1C[C@H]1CN1CCN(c2csc3cc(C(F)(F)F)ccc23)CC1)N1CCC(O)CC1 [compound 826660]	53

Ask: Would you kindly share the measured Ki for CCN(CC)C(=O)C1CCCN(C(=O)[C@@H]2C[C@H]2CN2CCN(c3csc4cc(C(F)(F)F)ccc34)CC2)C1 (some centres unmarked) [compound 826908] ?
Result: 7.06

Ask: // same read-out, input: CC1CC(C)CN(C(=O)[C@@H]2C[C@H]2CN2CCCN(c3csc4cc(F)ccc34)CC2)C1 (some centres unmarked) [compound 826878]
Result: 7.95

Ask: Try this molecule next: O=C(CCCN1CCCN(c2csc3cc(F)ccc23)CC1)N1CCCC1 [compound 826839]
Result: 9.37

Ask: Try O=C([C@@H]1C[C@H]1CN1CCN(c2csc3cc(C(F)(F)F)ccc23)CC1)N1CCC(O)C1 (some centres unmarked) [compound 826914] next.
Result: 101

Ask: Next record, please: CN(C)[C@H]1CCN(C(=O)[C@@H]2C[C@H]2CN2CCN(c3csc4cc(C(F)(F)F)ccc34)CC2)C1 [compound 826926]
Result: 86.5

Ask: Follow-up entry: Cc1cccc(C)c1NC[C@@H]1CCCN1C(=O)[C@@H]1C[C@H]1CN1CCN(c2csc3cc(C(F)(F)F)ccc23)CC1 [compound 826919]
Result: 329
